- Protocol: MTT cytotoxicity assessment in keratinocytes
- Assay type: cell-based, human
- Condition Info: human, HEKa cells (adult epidermal keratinocytes); HEKa cells exposed to 5 mg/mL peptide in solution
Where a SMILES comes first, the peptide text is derived from it. Bridges are numbered along the chain shown (N, C = ends).
Listing of entries alongside the reported viability at 5000 µg/mL.
Measured Attribute: viability at 5000 µg/mL

* C[C@H](N)C(=O)N[C@H]1CSSC[C@@H](C(=O)NCC(=O)O)NC(=O)[C@H](CCC(N)=O)NC(=O)[C@H](Cc2c[nH]cn2)NC(=O)[C@H](CCC(N)=O)NC(=O)[C@H]([C@@H](C)O)NC(=O)[C@H](CO)NC(=O)CNC(=O)[C@H]([C@@H](C)O)NC1=O [SPACE™, ACTGSTQHQCG, reference compound] (H-ACTGSTQHQCG-OH; disulfide 2-10; N-terminus and C-terminus assumed) | 99.4%
* C[C@H](N)C(=O)N[C@H]1CSSC[C@@H](C(=O)NCC(=O)O)NC(=O)[C@H](CC(N)=O)NC(=O)[C@H](Cc2c[nH]cn2)NC(=O)[C@H](CC(N)=O)NC(=O)[C@H]([C@@H](C)O)NC(=O)[C@H](CO)NC(=O)[C@H](C)NC(=O)[C@H](CO)NC1=O [SP7-5, ACSASTNHNCG] (H-ACSASTNHNCG-OH; disulfide 2-10; N-terminus and C-terminus assumed) | 60.1%

// provenance: patent US20180251495A1
